Entry source: patent US20240254119A1

# TEST_PROTOCOL: Three time point assay for plasma, brain and testes distribution after oral dosing
# Format: in vivo, rat
# STUDY_CONDITIONS: rat, oral dosing, time point 2 h
We begin with a simple list: items and their reported Testes concentration.

>  <MOLECULE>
COC(=O)N1CC(c2nc(-c3ccc(C(F)F)c(NC(=O)c4cnc5ccccn45)c3)no2)C1

>  <Testes concentration>
1140 ng/g

$$$$
>  <MOLECULE>
Cc1ccc(-c2noc(CC(O)C(F)F)n2)cc1NC(=O)c1cnc2ccccn12 (centres unmarked)

>  <Testes concentration>
482 ng/g

$$$$
>  <MOLECULE>
Cc1ccc(-c2noc(CC(=O)O)n2)cc1NC(=O)c1cnc2ccccn12

>  <Testes concentration>
0 ng/g

$$$$
>  <MOLECULE>
Cc1ccc(-c2noc(C3CCS(=O)(=O)N3)n2)cc1NC(=O)c1cnc2ccccn12 (racemic)

>  <Testes concentration>
100 ng/g

$$$$
>  <MOLECULE>
Cc1ccc(-c2noc([C@H](C)O)n2)cc1NC(=O)c1cnc2ccccn12

>  <Testes concentration>
1020 ng/g

$$$$
>  <MOLECULE>
O=C(Nc1cc(-c2noc([C@H]3C[C@@H]3F)n2)ccc1Br)c1cnc2ccccn12

>  <Testes concentration>
3010 ng/g

$$$$
>  <MOLECULE>
Cc1ccc(-c2noc(C(C)NS(C)(=O)=O)n2)cc1NC(=O)c1cnc2ccccn12 (single isomer, unassigned) [Compound I-238]

>  <Testes concentration>
131 ng/g

$$$$
>  <MOLECULE>
COC(=O)N1CC(c2nc(-c3ccc(Cl)c(NC(=O)c4cnc5ccccn45)c3)no2)C1

>  <Testes concentration>
947 ng/g

$$$$
>  <MOLECULE>
Cc1ccc(-c2noc(C(C)NS(C)(=O)=O)n2)cc1NC(=O)c1cnc2ccccn12 (single isomer, unassigned) [Compound I-237]

>  <Testes concentration>
192 ng/g

$$$$
>  <MOLECULE>
Cc1ccc(-c2noc([C@@H](C)O)n2)cc1NC(=O)c1cnc2ccccn12

>  <Testes concentration>
39.3 ng/g

$$$$

The recorded Testes concentration for entry Cc1ccc(-c2noc(C3CCS(=O)(=O)C3)n2)cc1NC(=O)c1cnc2ccccn12 (racemic) equals 1830 ng/g

====

# SYSTEM_TESTED: PDGFRα (Homo sapiens, UniProt P16234)
# Construct: purchased Millipore 14-467 (lot 26321_ACTI)
# Sequence (P16234 24-1089): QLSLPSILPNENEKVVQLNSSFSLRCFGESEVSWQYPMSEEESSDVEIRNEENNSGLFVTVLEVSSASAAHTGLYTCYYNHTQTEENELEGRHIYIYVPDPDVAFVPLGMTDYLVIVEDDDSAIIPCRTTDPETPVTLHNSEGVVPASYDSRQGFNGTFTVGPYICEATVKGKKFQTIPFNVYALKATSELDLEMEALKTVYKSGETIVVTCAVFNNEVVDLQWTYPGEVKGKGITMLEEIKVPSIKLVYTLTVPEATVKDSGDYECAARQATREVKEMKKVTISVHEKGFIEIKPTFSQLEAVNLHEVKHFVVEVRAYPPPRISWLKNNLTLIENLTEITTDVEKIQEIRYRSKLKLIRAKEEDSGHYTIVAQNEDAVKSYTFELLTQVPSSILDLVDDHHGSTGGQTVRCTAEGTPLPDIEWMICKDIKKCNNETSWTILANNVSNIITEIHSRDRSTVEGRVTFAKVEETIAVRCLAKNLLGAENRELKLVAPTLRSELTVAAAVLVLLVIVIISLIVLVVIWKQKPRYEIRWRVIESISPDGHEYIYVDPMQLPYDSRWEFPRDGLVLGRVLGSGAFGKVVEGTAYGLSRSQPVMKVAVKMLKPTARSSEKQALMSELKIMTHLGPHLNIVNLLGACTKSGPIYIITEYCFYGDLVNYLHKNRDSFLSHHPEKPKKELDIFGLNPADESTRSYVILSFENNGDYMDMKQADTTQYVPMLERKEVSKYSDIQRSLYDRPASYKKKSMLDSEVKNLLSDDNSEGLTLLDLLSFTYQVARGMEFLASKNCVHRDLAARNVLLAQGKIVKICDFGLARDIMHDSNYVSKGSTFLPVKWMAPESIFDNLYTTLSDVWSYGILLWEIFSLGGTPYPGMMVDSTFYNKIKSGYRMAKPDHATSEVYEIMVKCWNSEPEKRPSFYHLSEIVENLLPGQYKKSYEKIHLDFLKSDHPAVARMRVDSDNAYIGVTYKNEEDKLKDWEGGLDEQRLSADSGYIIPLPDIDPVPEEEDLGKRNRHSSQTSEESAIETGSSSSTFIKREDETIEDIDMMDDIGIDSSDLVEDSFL
# TEST_PROTOCOL: Caliper biochemical assay, PDGFRα
# STUDY_CONDITIONS: Table 6
pIC50: −log10 of the molar value.
OBSERVED_PROPERTY: pIC50

In the examples that follow, each entry is paired with its recorded pIC50.
>  <MOLECULE>
Cc1ccc(-c2noc(C3(N)CC4(CC(F)(F)C4)C3)n2)cc1NC(=O)c1cnc2ccccn12

>  <pIC50>
5.30 to 6.30

$$$$
>  <MOLECULE>
Cc1ccc(-c2noc(C3CC(Oc4ccccc4)C3)n2)cc1NC(=O)c1cnc2ccccn12 (stereo not drawn) [Compound I-347]

>  <pIC50>
5.30 to 6.30

$$$$
>  <MOLECULE>
Cc1ccc(-c2noc([C@H]3C[C@@H]3F)n2)cc1NC(=O)c1cnc2ccc(C#N)cn12

>  <pIC50>
4.52 to 5.30

$$$$

The recorded pIC50 for entry COC(=O)N1CC(c2nc(-c3ccc(C)c(NC(=O)c4cnn5cc(C#N)ccc45)c3)no2)C1 equals 4.52 to 5.30

The recorded pIC50 for entry CCN1CC[C@H]1c1nc(-c2ccc(C)c(NC(=O)c3cnc4ccccn34)c2)no1 (racemic) equals 5.30 to 6.30

The recorded pIC50 for entry O=C(Nc1cc(-c2noc([C@H]3CC(F)(F)CN3)n2)ccc1Cl)c1cnc2ccccn12 equals 5.30 to 6.30

The recorded pIC50 for entry COC(=O)N1CC(c2nc(-c3ccc(C)c(NC(=O)c4cnc5cc(OC[C@H](C)O)ccn45)c3)no2)C1 equals 6.30 to 7.30

The recorded pIC50 for entry Cc1ccc(-c2noc(CC(O)C(F)F)n2)cc1NC(=O)c1cnc2ccccn12 (stereo not drawn) equals 5.30 to 6.30

The recorded pIC50 for entry Cc1ccc(-c2noc([C@H]3C[C@@H]3F)n2)cc1NC(=O)c1cnc2cc(N3CCCC3)ccn12 equals ≥ 7.30

The recorded pIC50 for entry COC(=O)Cc1nc(-c2ccc(C)c(NC(=O)c3cnc4ccccn34)c2)no1 equals 5.30 to 6.30

The recorded pIC50 for entry Cc1ccc(-c2noc(CC(=O)OCc3ccccc3)n2)cc1NC(=O)c1cnc2ccccn12 equals 4.52 to 5.30
